- EXPERIMENT_NOTES: yeast display, Sf9 membrane polyspecificity reagent, FACS + sequencing; frameworks hold sequencing errors
MEASUREMENT_TYPE: polyreactivity (PSR sort gate)

The cases that follow already have their polyreactivity (PSR sort gate) on record.
- PRIMARY_SEQUENCE: "QVQLVESGGGLVQAGGSLRLSCAASGYIFDYYAMGWYRQAPWKERELVAAISSSGGTTYYADSVKGRFTISRDNAKNTVYLQMNSLKPEDTAVYYCAARKSRWQRGYYYWGQGTQVTVSS"
  polyreactivity (PSR sort gate): "high polyreactivity"
- PRIMARY_SEQUENCE: "QVQLVESGGGLVQAGGSLRLSCAASGGIFGFNAMGWYRPAPGKERELVADISDGVRTNYADSVKGRFTISRDNAKNTVYLQMNSLKPEDTAVYYCATDGLFLAWAPLGALAFDYWGQGTQVTVSS"
  polyreactivity (PSR sort gate): "low polyreactivity"
- PRIMARY_SEQUENCE: "QVQLVESGGGLVQAGGSLRLSCAASGSIFDDYAMGWYRQAPGKERELVAAISSSGTSTYYADSVKGRFTISRDNAKNTVYLQMNSLKQEDTAVYYCAARSAILKSGYLMDYWGQGTQVTVSS"
  polyreactivity (PSR sort gate): "low polyreactivity"
- PRIMARY_SEQUENCE: "QVQLVESGGGLVLAGGSRRLSCASSGSTFPLYTMGWYRQAPGKERELVAAINYGGTSTYYADSVKGRFTFSRVKAKNTVYLQRNSLKPEDTAVYYCAAERYFLYLCRKFGYWGQGTQVTVSW"
  polyreactivity (PSR sort gate): "high polyreactivity"
- PRIMARY_SEQUENCE: "QVQLVESGGGLVQAGGSLRFSCAASGRIFYPYAMGWYRQAHGKERELVAAIRRSGVDTYYADSVKGRFTISRDNAKNTVYLQMNSLKPEDTAVYYCAADPYWFFPHYDSWGQGTQVTVSS"
  polyreactivity (PSR sort gate): "low polyreactivity"
- PRIMARY_SEQUENCE: "QVQLVESGGGLVQAGGSLRLSCAASGYTFRHYAMGWYRQAPGKERELVAAISRSGGRTYYADSVKGRFTISRDNAKNTVYLHMNSLKPEDTAVYYCAADRVFGSSYLSGFDYWGQGTQGTVSS"
  polyreactivity (PSR sort gate): "low polyreactivity"
- PRIMARY_SEQUENCE: "QVQLVESGGGLVQAGGSLRLSCAASGSIFTGNAMGWYREAPGKERELVAAITNGGITNYADSVKRRFTISRDNAMNTVYLQMNSLKPEDTAVYYCAADYVDFYSFRRFDYWGQGTQVTVSS"
  polyreactivity (PSR sort gate): "low polyreactivity"
- PRIMARY_SEQUENCE: "QVQLVESGGGLVQAGGSLRLSCAASGRTFVRYAMGWYRQAPGKERELVAAISQSGGDTYYADSVKGRFTISRDNAKNTVYLQMNSLKPEDTPVYYCAARSDDVSRYGYWGQGTQVTVSS"
  polyreactivity (PSR sort gate): "low polyreactivity"
- PRIMARY_SEQUENCE: "QVQLVESGGGLVQAGGSLRLSCAASGSIFEINAMGWYRQAPGKERELVAAITGSGGSTHYADSVKGRFTISRDTAKNTVYLQMNSLKPEDTAVYYCAADICYFTKYGYWGQGTQVTVSS"
  polyreactivity (PSR sort gate): "low polyreactivity"
- PRIMARY_SEQUENCE: "QVQLVESGGGLVQAGGSLRLSCAASGSIFVGNVMGWYRQAPGKERELVAAIRFSGGNTYYADSVKGRFTISRDNAKNTVYLQMNSLKPEDTAVYYCAARYGQGSYPTKYYYWGQGTQVTVSS"
  polyreactivity (PSR sort gate): "high polyreactivity"

The measured polyreactivity (PSR sort gate) associated with `QVQLVESGGVLVQAGGSLRLSCAASGSTFLDYAMGWYRQAPGKERELVAAITSGGSTYYADSVKGRFTISRDNAKNTVDLHMKSMIPEDTAVYYCAADSVTGNAPSLVGDIYYYWGQGTQVTVSS` reads low polyreactivity
